- target: T1, Placenta Growth Factor (PlGF), human (human, UniProt P49763 21-149)
- T1 chain: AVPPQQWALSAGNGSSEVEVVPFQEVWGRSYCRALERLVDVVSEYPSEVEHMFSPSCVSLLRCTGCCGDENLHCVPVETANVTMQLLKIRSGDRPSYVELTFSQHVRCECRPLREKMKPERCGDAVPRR
- assay-overview: ELISA
quantity: pEC50
Scale note: pEC50 = -log10(concentration in M).

- HC 5/SLC 9 (antibody) chain 1: GQGTLVTVSSASTKGQPVLHQPPAMSSALGTTIRLTCTLRNDHDIGVYSVYWYQQRPGHPPRFLLRYFSQSDKSQGPQVPPRFSGSKDVARNRGYLSISELQPEDEAMYYCAMGARSRCWPRGFQSKHNSVTHVFGSGTQLTVLSQPKATPSVTLFPPSSEELQANKATLVCLMNDFYPGILTVTWKADGTPITQGVEMTTPSKQSNNKYAASSYLSLTPEQWRSRRSYSCQVMHEGSTVEKTVAPAECS chain 2: MSWAPVLLMLFVYCTGCGPQPVLHQPPAMSSALGTTIRLTCTLRNDHDIGVYSVYWYQQRPGHPPRFLLRYFSQSDKSQGPQVPPRFSGSKDVARNRGYLSISVTHVFGSGTQLTVLSQPKATPSVQVQLVQ: 10.18

Query: I am curious: what pEC50 value has been reported for HC 5/SLC 3 (antibody) chain 1: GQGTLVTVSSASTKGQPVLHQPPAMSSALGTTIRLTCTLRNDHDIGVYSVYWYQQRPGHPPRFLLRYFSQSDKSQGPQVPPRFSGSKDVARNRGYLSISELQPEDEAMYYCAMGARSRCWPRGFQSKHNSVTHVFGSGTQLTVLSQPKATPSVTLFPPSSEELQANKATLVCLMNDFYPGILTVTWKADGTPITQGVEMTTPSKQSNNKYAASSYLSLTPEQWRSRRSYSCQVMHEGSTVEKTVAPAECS chain 2: MSWAPVLLMLFVYCTGCGPQPVLHQPPAMSSALGTTIRLTCTLRNDHDIGVYSVYWYQQRPGHPPRFLLRYFSQSDKSQGPQVPPRFSGSKDVARNRGYLSISVTHVFGSGTQLTVLSQPQVQLVQ ?
Response: 9.74
